# experimental system: human TREM2/DAP12 fusion protein (human, UniProt O43914 41-113, limits assumed)
# Sequence (O43914 other isoform, or with tags, fused parts or gaps limits assumed): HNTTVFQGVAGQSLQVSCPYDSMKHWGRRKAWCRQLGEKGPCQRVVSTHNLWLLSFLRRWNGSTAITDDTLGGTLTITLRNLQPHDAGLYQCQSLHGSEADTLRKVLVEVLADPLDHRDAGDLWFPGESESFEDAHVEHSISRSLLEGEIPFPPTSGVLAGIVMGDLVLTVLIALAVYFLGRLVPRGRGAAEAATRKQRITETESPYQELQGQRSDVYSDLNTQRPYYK
# experiment notes: cell-based or functional assay
observation type: BW Luc assay plate bound 7.3 nM IgG, FOC (FOC)

binder="AL2p-54 (antibody, V domains shown, Fab and IgG formats under one id) VH: QVQLVQSGAEVKKPGSSVKVSCKASGYAFSSHWMNWVRQAPGQGLEWMGRIYPGEGDTNYAQKFHGRVTITADESTSTAYMELSSLRSEDTAVYYCARLLRNKPGESYAMDYWGQGTLVTVSS VL: DVVMTQTPLSLSVTPGQPASISCRTSQSLVHSNQYTYLHWYLQKPGQSPQLLIYKVSNRVSGVPDRFSGSGSGTDFTLKISRVEAEDVGVYYCSQSTRVPYTFGQGTKLEIK" experimental_result=1.53
binder="AL2p-55 (antibody, V domains shown, same VH/VL entries as AL2p-56; Fab and IgG formats under one id) VH: EVQLVQSGAEVKKPGSSVKVSCKASGYAFSSHWMNWVRQAPGQGLEWMGRIYPGEGDTNYAQKFHGRVTITADESTSTAYMELSSLRSEDTAVYYCARLLRNKPGESYAMDYWGQGTLVTVSS VL: DVVMTQTPLSLSVTPGQPASISCRTSQSLVHSNAYTYLHWYLQKPGQSPQLLIYKVSNRVSGVPDRFSGSGSGTDFTLKISRVEAEDVGVYYCSQSTRVPYTFGQGTKLEIK" experimental_result=1.49
binder="AL2p-57 (antibody, V domains shown, Fab and IgG formats under one id) VH: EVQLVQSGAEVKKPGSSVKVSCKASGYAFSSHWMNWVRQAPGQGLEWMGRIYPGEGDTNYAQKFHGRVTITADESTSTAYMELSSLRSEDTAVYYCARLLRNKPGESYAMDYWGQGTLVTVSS VL: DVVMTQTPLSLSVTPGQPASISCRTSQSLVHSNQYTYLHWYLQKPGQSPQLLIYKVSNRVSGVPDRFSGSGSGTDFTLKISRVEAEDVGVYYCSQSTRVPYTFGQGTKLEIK" experimental_result=1.41
